Tested on: SK-OV-3 ovarian
assay.method.text: NCI tumour cell line growth inhibition, 48 h; in the data active means GI50 below about 0.43 µM; inactive means the rest
Labels: label 1 (active), label 0 (inactive)

[[record]]
molecule = "C=C1CCC2C3(C)COC(c4ccccc4Br)OC3CCC2(C)C1C/C=C1/C(=O)OCC1OC(C)=O (configuration not stated)"
assigned_label = "label 0"

[[record]]
molecule = "O=C(CN(/C=C/C(=O)C(F)(F)F)c1ccccc1)c1ccc(Cl)c(Cl)c1"
assigned_label = "label 0"

[[record]]
molecule = "N.N.NCCCCCCN.O=C([O-])CC(=O)[O-].O=C([O-])CC(=O)[O-].[Pt+4].[Pt+4]"
assigned_label = "label 0"

[[record]]
molecule = "Cc1c(Cl)cccc1NC1=C(Cl)C(=O)N(Cc2ccccc2)C1=O"
assigned_label = "label 0"

[[record]]
molecule = "CS(=O)(=O)Nc1ccc(N=Cc2c(O)[nH]c3ccccc23)cc1"
assigned_label = "label 0"

[[record]]
molecule = "Nc1n[nH]c2ccc([C@@H]3Nc4ccc5[nH]ncc5c4[C@H]4C5C=CC(C5)[C@@H]34)cc12 (some centres not stated)"
assigned_label = "label 0"

[[record]]
molecule = "CCN(CC)c1ccc(C(=N)c2ccc(N(C)C)cc2)cc1"
assigned_label = "label 0"

[[record]]
molecule = "CN(C)CC1CCCCCC(CN(C)C)C1=O (configuration not stated)"
assigned_label = "label 0"

[[record]]
molecule = "CSc1ccccc1C#Cc1ccccc1C#CCCCCO"
assigned_label = "label 0"

[[record]]
molecule = "Cn1cc(-c2ccc(-c3cn(C)c4ccc(Cl)cc34)s2)c2cc(Cl)ccc21"
assigned_label = "label 0"

[[record]]
molecule = "C/C=C/[C@@H]1OC(=O)C2=C[C@@H](O)[C@@H](/C=C/C)O[C@H]21"
assigned_label = "label 0"

[[record]]
molecule = "COCCNc1cc(NC(=O)N2CCCc3cc(CN4CCN(C)CC4=O)c(C=O)nc32)ncc1C#N"
assigned_label = "label 0"

[[record]]
molecule = "O=C(COc1cccc(/C=C2\\COc3ccc(Cl)cc3C2=O)c1)c1ccc(Cl)cc1"
assigned_label = "label 0"

[[record]]
molecule = "Nc1ccc(-c2ccc(N)cc2I)c(I)c1"
assigned_label = "label 0"

[[record]]
molecule = "COc1cc(C2C3=C(COC3=O)Nc3cc4c(cc32)CCC4)cc2c1OCO2 (configuration not stated)"
assigned_label = "label 1"

[[record]]
molecule = "CCCCN(CCCC)c1ccc(C(=NC(C)CCCN(CC)CC)c2ccc(N(C)C)cc2)cc1 (configuration not stated)"
assigned_label = "label 0"

[[record]]
molecule = "CCCOc1nc(SCCC)nc2c1cnn2-c1ccccc1"
assigned_label = "label 0"


---

System: NCI-H522 lung
assay.method.text: NCI tumour cell line growth inhibition, 48 h
Here, each record is paired with measured log10(TGI) data.
quantity: log10(TGI) (log10 of the value in µM)

[[record]]
compound = "COc1cc(Oc2nc3c(N)cc(C(F)(F)F)cc3nc2-c2ccccc2)cc(OC)c1OC"
quantity = "log10(TGI)"
readout_number = 1.27

[[record]]
compound = "COc1cc2c(cc1OC)C(C)N(C)c1c-2c(OC(C)=O)cc2cc(OC)c(OC)cc12 (stereo not given)"
quantity = "log10(TGI)"
readout_number = 1.28

[[record]]
compound = "CSC1(SC2=NCCN2)SC2(NCCN2)S1"
quantity = "log10(TGI)"
readout_number = 1.43

[[record]]
compound = "Nc1nc(N)c2[nH]cnc2n1 (tested in a mixture with another compound)"
quantity = "log10(TGI)"
readout_number = 1.73

[[record]]
compound = "O=c1oc(-c2ccccc2)c(-c2ccccc2)n1-c1ccc(Br)cc1"
quantity = "log10(TGI)"
readout_number = 1.80

[[record]]
compound = "c1ccc2cc(CNCCOCCOCCNCc3ccc4ccccc4c3)ccc2c1"
quantity = "log10(TGI)"
readout_number = 0.54

